- protocol_summary: Metabolic (microsomal) stability assay, human liver microsomes (HLM)
- Format: in vitro ADME
- setup_conditions: 1 μM test compound, predicted clearance as percent of liver blood flow
- Protocol: The metabolic degradation of the test compound is assayed at 37° C. with pooled liver microsomes (mouse (MLM), rat (RLM) or human (HLM)). […] Additionally, the NADPH-independent degradation is monitored in incubations without NADPH, terminated at the last time point by addition of acetonitrile. […] An aliquot of the supernatant is assayed by LC-MS/MS to quantify the concentration of parent compound in the individual samples. […]
Collected HLM QH values appear next to each entry.
experimental_endpoint: HLM QH

| test_smiles | measured |
| --- | --- |
| C[C@H](Oc1nc(-c2noc3c2CCC[C@@]32CCCc3sc(N)c(C#N)c32)nc2c1CN(c1ncccn1)[C@@]21CCOC1)[C@@H]1CCCN1C | <24% |
| C[C@H](Oc1nc(-c2onc3c2CCC[C@@]32CCCc3sc(N)c(C#N)c32)nc2c1n(C)c(=O)n2[C@@H]1CCOC1)[C@@H]1C[C@@H](F)CN1C | 56% |
| C[C@H](Oc1nc(-c2onc3c2CCC[C@@]32CCCc3sc(N)c(C#N)c32)nc2c1[nH]c(=O)n2[C@@H]1CCCOC1)[C@@H]1CCCN1C | <24% |

====

- Tested on: SK-CO-1 cells
- protocol_summary: SK-CO-1 CTG proliferation assay (120 h) (CRC, G12V)
- Assay type: cell-based
- setup_conditions: Homo sapiens
experimental_endpoint: IC50 (nM)

| test_smiles | measured |
| --- | --- |
| C[C@H](Oc1nc(-c2onc3c2CCC[C@@]32CCCc3sc(N)c(C#N)c32)nc2c1n(C)c(=O)n2[C@H]1CCCOC1)[C@@H]1CCCN1C | 445 |
| C[C@H](Oc1nc(-c2onc3c2CCC[C@@]32CCCc3sc(N)c(C#N)c32)nc2c1n(C)c(=O)n2[C@@H]1CCOC1)[C@@H]1CC[C@H](C)N1C | 10 |
| CCn1c(=O)n([C@@H]2CCCOC2)c2nc(-c3onc4c3CCC[C@@]43CCCc4sc(N)c(C#N)c43)nc(O[C@@H](C)[C@@H]3CCCN3C)c21 | 11 |

====

pIC50 listing for selected molecules.
- Tested on: Ba/F3 cells KRAS G12C
- protocol_summary: Ba/F3 proliferation assay (KRAS G12C)
- Type: cell-based
- setup_conditions: Mus musculus, BaF3, 72 h, AlamarBlue viability
pIC50: −log10 of the molar value.

| test_smiles | assay_system | pIC50 |
| --- | --- | --- |
| C[C@H](Oc1nc(-c2onc3c2CCC[C@@]32CCCc3sc(N)c(C#N)c32)nc2c1COC[C@]21CCOC1)[C@@H]1CCCN1C | Ba/F3 cells KRAS G12C | 8.70 |
| C[C@H](Oc1nc(-c2noc3c2CCC[C@@]32CCCc3sc(N)c(C#N)c32)nc2c1CCCO[C@]21CCOC1)[C@@H]1CCCN1C | Ba/F3 cells KRAS G12C | 8.15 |
| C[C@H](Oc1nc(-c2onc3c2CCC[C@@]32CCCc3sc(N)c(C#N)c32)nc2c1n(C)c(=O)n2[C@H]1CCOC1)[C@@H]1CCCN1C | Ba/F3 cells KRAS G12C | 7.42 |
| CO[C@H]1CCN(C)[C@@H]1[C@H](C)Oc1nc(-c2onc3c2CCC[C@@]32CCCc3sc(N)c(C#N)c32)nc2c1n(C)c(=O)n2[C@H]1CO[C@@H](C)C1 | Ba/F3 cells KRAS G12C | 8.70 |
| CO[C@@H]1C[C@@H]([C@H](C)Oc2nc(-c3onc4c3CCC[C@@]43CCCc4sc(N)c(C#N)c43)nc3c2n(C)c(=O)n3[C@@H]2CCCOC2)N(C)C1 | Ba/F3 cells KRAS G12C | 8.30 |
| C[C@H](Oc1nc(-c2onc3c2CCC[C@@]32CCCc3sc(N)c(C#N)c32)nc2c1CN(C1COC1)C[C@]21CCOC1)[C@@H]1CC[C@H](C)N1C | Ba/F3 cells KRAS G12C | 8.52 |
| C[C@H](Oc1nc(-c2noc3c2CCC[C@@]32CCCc3sc(N)c(C#N)c32)nc2c1cnn2[C@@H]1CCOC1)[C@@H]1CCCN1C | Ba/F3 cells KRAS G12C | 7.92 |
| C[C@H](Oc1nc(-c2onc3c2CCC[C@@]32CCCc3sc(N)c(C#N)c32)nc2c1n(C)c(=O)n2[C@@H]1CCOC1)[C@@H]1C[C@H](F)CN1C | Ba/F3 cells KRAS G12C | 7.59 |
| C[C@H](Oc1nc(-c2onc3c2CCC[C@@]32CCCc3sc(N)c(C#N)c32)nc2c1n(C)c(=O)n2[C@@H]1CCOC1)[C@@H]1CCCN1C | Ba/F3 cells KRAS G12C | 8.40 |
| CCn1c(=O)n([C@@H]2CCCOC2)c2nc(-c3onc4c3CCC[C@@]43CCCc4sc(N)c(C#N)c43)nc(OCC3(CN4CCCC4)CC3)c21 | Ba/F3 cells KRAS G12C | 6.75 |
| Cc1cn([C@@H]2CCOC2)c2nc(-c3onc4c3CCC[C@@]43CCCc4sc(N)c(C#N)c43)nc(O[C@@H](C)[C@@H]3CCCN3C)c12 | Ba/F3 cells KRAS G12C | 6.91 |
| CO[C@H]1CCN(C)[C@@H]1[C@H](C)Oc1nc(-c2noc3c2CCC[C@@]32CCCc3sc(N)c(C#N)c32)nc2c1n(C)c(=O)n2[C@@H]1CCCOC1 | Ba/F3 cells KRAS G12C | 8.52 |

====

- Test system: NCI-H358 cells
- protocol_summary: NCI-H358 CTG proliferation assay (120 h) (NSCLC, G12C)
- Format: cell-based
- setup_conditions: Homo sapiens
pIC50: −log10 of the molar value.
pIC50 overview

| compound | assay_system | pIC50 |
| --- | --- | --- |
| CO[C@@H]1C[C@@H]([C@H](C)Oc2nc(-c3onc4c3CCC[C@@]43CCCc4sc(N)c(C#N)c43)nc3c2n(C)c(=O)n3[C@@H]2CCOC2)N(C)C1 | NCI-H358 cells | 8.40 |
| CCn1c(=O)n([C@@H]2CCCOC2)c2nc(-c3onc4c3CCC[C@@]43CCCc4sc(N)c(C#N)c43)nc(OCC3(CN4CCCC4)CC3)c21 | NCI-H358 cells | 6.63 |
| CO[C@@H]1C[C@@H]([C@H](C)Oc2nc(-c3noc4c3CCC[C@@]43CCCc4sc(N)c(C#N)c43)nc3c2n(C)c(=O)n3[C@@]23COC[C@@H]2C3)N(C)C1 | NCI-H358 cells | 8.52 |
| C[C@H](Oc1nc(-c2onc3c2CCC[C@@]32CCCc3sc(N)c(C#N)c32)nc2c1CN(C1COC1)C[C@]21CCOC1)[C@@H]1CC[C@H](C)N1C | NCI-H358 cells | 8.30 |
| C[C@H](Oc1nc(-c2onc3c2CCC[C@@]32CCCc3sc(N)c(C#N)c32)nc2c1[nH]c(=O)n2[C@@H]1CCCOC1)[C@@H]1CCCN1C | NCI-H358 cells | 8.05 |
| C[C@H](Oc1nc(-c2noc3c2CCC[C@@]32CCCc3sc(N)c(C#N)c32)nc2c1CCC21CCOC1)[C@@H]1CCCN1C (stereo partly drawn) | NCI-H358 cells | 7.37 |
| C[C@H](Oc1nc(-c2onc3c2CCC[C@@]32CCCc3sc(N)c(C#N)c32)nc2c1COC[C@]21CCOC1)[C@@H]1CCCN1C | NCI-H358 cells | 8.52 |
| C[C@H](Oc1nc(-c2onc3c2CCC[C@@]32CCCc3sc(N)c(C#N)c32)nc2c1n(C)c(=O)n2[C@@H]1CCOC1)[C@@H]1[C@@H](F)CCN1C | NCI-H358 cells | 7.27 |
| Cc1cc2c(O[C@@H](C)[C@@H]3CCCN3C)nc(-c3onc4c3CCC[C@@]43CCCc4sc(N)c(C#N)c43)nc2n1[C@@H]1CCOC1 | NCI-H358 cells | 7.77 |
| C[C@H](Oc1nc(-c2noc3c2CCC[C@@]32CCCc3sc(N)c(C#N)c32)nc2c1n(C)c(=O)n2[C@H]1CO[C@@H](C)C1)[C@@H]1CCCN1C | NCI-H358 cells | 9.00 |
| C[C@H](Oc1nc(-c2onc3c2CCC[C@@]32CCCc3sc(N)c(C#N)c32)nc2c1n(C)c(=O)n2[C@@H]1CCOC1)C12CCCN1CCC2 | NCI-H358 cells | 8.22 |
| C[C@H](Oc1nc(-c2noc3c2CCC[C@@]32CCCc3sc(N)c(C#N)c32)nc2c1CCCO[C@]21CCOC1)[C@@H]1CCCN1C | NCI-H358 cells | 8.30 |
